Just for reference, PubChem BioAssay is where these values come from.

assay: modulators of CIT2-GFP expression in yeast, confirmation, S. cerevisiae, GFP fusion, cherry picks, mother/daughter gates (AID 2274); settings: S. cerevisiae CIT2-GFP strain, flow cytometry, 3 h; measured here: daughter cell gate; at 10 µM; stronger effect = higher value

{"COMPOUND": "Oc1c(CN2CCN(c3ccccc3)CC2)cc(Br)c2cccnc12", "GFP response, % of DMSO (%)": 99.1}
{"COMPOUND": "O=C1CC(Sc2nnnn2C2CCCCC2)C(=O)N1c1ccccc1 (stereo unspecified)", "GFP response, % of DMSO (%)": 94.6}
{"COMPOUND": "Cc1ccc(S(=O)(=O)N2CCCC2C(=O)Oc2ccccc2)cc1 (stereo unspecified)", "GFP response, % of DMSO (%)": 97.2}
{"COMPOUND": "CCCn1c(=O)c(C(=O)Nc2ccccc2C(=O)OC)c(O)c2ccccc21", "GFP response, % of DMSO (%)": 94.8}
{"COMPOUND": "COc1ccc(/C=N/NC(=O)C2(C)NC(C)(C)Cc3ccccc32)cc1 (stereo unspecified)", "GFP response, % of DMSO (%)": 99.1}
{"COMPOUND": "CCOc1cc(N2CCOCC2)c(OCC)cc1NC(=O)C(NC(=O)c1ccco1)C(C)C (stereo unspecified)", "GFP response, % of DMSO (%)": 108}
{"COMPOUND": "O=C(Nc1cc(Sc2ccccn2)cc([N+](=O)[O-])c1)c1ccc([N+](=O)[O-])cc1", "GFP response, % of DMSO (%)": 106}
{"COMPOUND": "N#C/C(=C\\c1c(N2CCC(C(N)=O)CC2)nc2ccccn2c1=O)C(=O)NCc1ccco1", "GFP response, % of DMSO (%)": 102}
{"COMPOUND": "Cc1ccc(/C=C/C(=O)c2ccccc2)cc1", "GFP response, % of DMSO (%)": 100}
{"COMPOUND": "Cc1noc2ncnc(Sc3c(Cl)cccc3Cl)c12", "GFP response, % of DMSO (%)": 105}
{"COMPOUND": "Cc1ccsc1C(=O)N(Cc1nnc(-c2ccccc2Cl)o1)C1CC1", "GFP response, % of DMSO (%)": 99.3}
